biological target: Angiotensin-converting enzyme (Oryctolagus cuniculus, UniProt P12822); assay type: tissue-based, Lung;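 note: enzymatic inhibition of angiotensin-converting enzyme measured with FAPGG as the substrate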; note: in other assays of this panel Not Active means under 50% inhibition at 10 µM
Sequence (P12822 whole entry): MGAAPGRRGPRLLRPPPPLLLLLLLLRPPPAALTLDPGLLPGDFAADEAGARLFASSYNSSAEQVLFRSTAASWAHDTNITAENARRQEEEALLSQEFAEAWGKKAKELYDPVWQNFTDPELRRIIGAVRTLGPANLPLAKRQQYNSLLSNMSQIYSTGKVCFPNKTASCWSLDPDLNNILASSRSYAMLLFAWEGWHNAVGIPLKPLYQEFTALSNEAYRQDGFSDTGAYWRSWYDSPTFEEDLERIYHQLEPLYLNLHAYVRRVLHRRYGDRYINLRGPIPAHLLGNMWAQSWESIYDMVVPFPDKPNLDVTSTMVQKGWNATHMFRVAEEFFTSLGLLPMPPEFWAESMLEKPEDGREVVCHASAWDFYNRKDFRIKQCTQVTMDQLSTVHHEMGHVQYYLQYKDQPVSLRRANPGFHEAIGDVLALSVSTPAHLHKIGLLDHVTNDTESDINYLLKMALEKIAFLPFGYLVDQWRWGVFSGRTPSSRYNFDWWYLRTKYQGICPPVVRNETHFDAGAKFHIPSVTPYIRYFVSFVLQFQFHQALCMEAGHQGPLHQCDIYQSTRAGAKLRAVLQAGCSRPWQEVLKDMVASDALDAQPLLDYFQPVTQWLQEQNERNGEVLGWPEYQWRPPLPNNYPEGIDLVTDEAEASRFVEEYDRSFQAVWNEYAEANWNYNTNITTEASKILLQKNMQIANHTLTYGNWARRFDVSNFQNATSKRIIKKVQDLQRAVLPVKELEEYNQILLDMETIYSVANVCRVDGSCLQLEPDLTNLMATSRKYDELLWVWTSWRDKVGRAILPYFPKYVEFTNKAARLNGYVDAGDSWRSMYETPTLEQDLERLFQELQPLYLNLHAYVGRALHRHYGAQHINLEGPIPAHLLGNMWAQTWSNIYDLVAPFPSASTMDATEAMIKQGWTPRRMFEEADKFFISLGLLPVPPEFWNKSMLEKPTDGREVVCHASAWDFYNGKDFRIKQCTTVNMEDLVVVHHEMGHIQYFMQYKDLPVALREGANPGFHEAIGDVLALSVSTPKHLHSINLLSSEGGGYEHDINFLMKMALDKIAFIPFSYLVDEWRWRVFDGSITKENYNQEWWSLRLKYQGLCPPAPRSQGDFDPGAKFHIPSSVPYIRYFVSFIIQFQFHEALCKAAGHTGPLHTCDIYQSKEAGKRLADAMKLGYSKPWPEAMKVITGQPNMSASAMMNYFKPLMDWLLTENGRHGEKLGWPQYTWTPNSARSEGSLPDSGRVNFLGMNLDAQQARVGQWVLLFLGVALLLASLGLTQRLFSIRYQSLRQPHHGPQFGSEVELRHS
readout_type: IC50

>>> recorded_value("SODIUM NITROPRUSSIDE")
"Not Active"
>>> recorded_value("LEAD (II) ACETATE")
"Not Active"
>>> recorded_value("LIPOPOLYSACCHARIDE E. COLI O55:B5")
"Not Active"
>>> recorded_value("CADMIUM ACETATE")
"Not Active"

====

experiment: DRUGMATRIX: Interleukin IL-1 radioligand binding (ligand: [125I] interleukin 1beta); type: cell membranes, Membrane; details: nih3t3; Not Active = under 50% inhibition at 10 µM
readout_type: IC50

>>> recorded_value("CC(O)CO (centres undefined)")
"Not Active"
>>> recorded_value("O=C(CCCN1CC=C(n2c(=O)[nH]c3ccccc32)CC1)c1ccc(F)cc1")
"Not Active"
>>> recorded_value("CCn1cc(C(=O)O)c(=O)c2cc(F)c(N3CCNCC3)cc21")
"Not Active"
>>> recorded_value("Cc1ccc2cc3c(ccc4ccccc43)c3c2c1CC3")
"Not Active"
>>> recorded_value("CC(C)(Oc1ccc(Cl)cc1)C(=O)O")
"Not Active"
>>> recorded_value("CCCCc1nc(Cl)c(CO)n1Cc1ccc(-c2ccccc2-c2nnn[nH]2)cc1")
"Not Active"
>>> recorded_value("CO[C@H]1/C=C/O[C@@]2(C)Oc3c(C)c(O)c4c(O)c(c(/C=N/N5CCN(C)CC5)c(O)c4c3C2=O)NC(=O)/C(C)=C\\C=C\\[C@H](C)[C@H](O)[C@@H](C)[C@@H](O)[C@@H](C)[C@H](OC(C)=O)[C@@H]1C")
"Not Active"
>>> recorded_value("O=c1ncn2nc(Sc3ccc(F)cc3F)ccc2c1-c1c(Cl)cccc1Cl")
"Not Active"
>>> recorded_value("C1CCC(C(CC2CCCCN2)C2CCCCC2)CC1 (centres undefined)")
"Not Active"
>>> recorded_value("C[C@]12CC[C@@H]3c4ccc(O)cc4CC[C@H]3[C@@H]1CCC2=O")
"Not Active"
>>> recorded_value("Cc1noc(NS(=O)(=O)c2ccc(N)cc2)c1C")
"Not Active"
>>> recorded_value("CC(C)C(Br)C(=O)NC(N)=O (centres undefined)")
"Not Active"
>>> recorded_value("NC(=O)N1c2ccccc2CCc2ccccc21")
"Not Active"
>>> recorded_value("CC1CC(OC(=O)C(O)c2ccccc2)CC(C)(C)C1 (centres undefined) [CYCLANDELATE]")
"Not Active"
>>> recorded_value("N[C@@H](Cc1ccc(O)c(O)c1)C(=O)O")
"Not Active"
>>> recorded_value("CNNCc1ccc(C(=O)NC(C)C)cc1")
"Not Active"
>>> recorded_value("COc1cc2nc(N3CCN(C(=O)C4COc5ccccc5O4)CC3)nc(N)c2cc1OC (centres undefined)")
"Not Active"
>>> recorded_value("CC1(C)S[C@@H]2[C@H](NC(=O)Cc3ccccc3)C(=O)N2[C@H]1C(=O)O")
"Not Active"
>>> recorded_value("CN(C)CCCN1c2ccccc2Sc2ccccc21")
"Not Active"

====

assay: DRUGMATRIX: Calcium Channel Type L, Benzothiazepine radioligand binding (ligand: [3H] Diltiazem); type: cell membranes, Rattus norvegicus, Wistar, Brain, Membrane; conditions: Not Active = under 50% inhibition at 10 µM; read-out: Ki
pKi: −log10 of the molar value.
Quick reference for pKi among some compounds
readout_type: pKi

>>> recorded_value("CCOC(=O)C1=C(COCCN)NC(C)=C(C(=O)OC)C1c1ccccc1Cl (configuration not stated) [AMLODIPINE]")
7.05
>>> recorded_value("CN(C)CCCN1c2ccccc2Sc2ccc(Cl)cc21 [CHLORPROMAZINE]")
5.54
>>> recorded_value("C1CCC(C(CC2CCCCN2)C2CCCCC2)CC1 (configuration not stated) [PERHEXILINE]")
6.03
>>> recorded_value("CCCN1C[C@H](CSC)C[C@@H]2c3cccc4[nH]cc(c34)C[C@H]21 [PERGOLIDE]")
5.53
>>> recorded_value("CN(C)CCCN1c2ccccc2Sc2ccccc21 [PROMAZINE]")
5.54
>>> recorded_value("CC(C)N1CCN(c2ccc(OCC3COC(Cn4cncn4)(c4ccc(Cl)cc4Cl)O3)cc2)CC1 (configuration not stated) [TERCONAZOLE]")
5.57
>>> recorded_value("CC(C)(C)NC(=O)[C@@H]1C[C@@H]2CCCC[C@@H]2CN1C[C@@H](O)[C@H](Cc1ccccc1)NC(=O)[C@H](CC(N)=O)NC(=O)c1ccc2ccccc2n1")
5.01

====

biological target: Androgen receptor (Rattus norvegicus, UniProt P15207); note: in other assays of this panel Not Active means under 50% inhibition at 10 µM
Sequence (P15207 whole entry S389L): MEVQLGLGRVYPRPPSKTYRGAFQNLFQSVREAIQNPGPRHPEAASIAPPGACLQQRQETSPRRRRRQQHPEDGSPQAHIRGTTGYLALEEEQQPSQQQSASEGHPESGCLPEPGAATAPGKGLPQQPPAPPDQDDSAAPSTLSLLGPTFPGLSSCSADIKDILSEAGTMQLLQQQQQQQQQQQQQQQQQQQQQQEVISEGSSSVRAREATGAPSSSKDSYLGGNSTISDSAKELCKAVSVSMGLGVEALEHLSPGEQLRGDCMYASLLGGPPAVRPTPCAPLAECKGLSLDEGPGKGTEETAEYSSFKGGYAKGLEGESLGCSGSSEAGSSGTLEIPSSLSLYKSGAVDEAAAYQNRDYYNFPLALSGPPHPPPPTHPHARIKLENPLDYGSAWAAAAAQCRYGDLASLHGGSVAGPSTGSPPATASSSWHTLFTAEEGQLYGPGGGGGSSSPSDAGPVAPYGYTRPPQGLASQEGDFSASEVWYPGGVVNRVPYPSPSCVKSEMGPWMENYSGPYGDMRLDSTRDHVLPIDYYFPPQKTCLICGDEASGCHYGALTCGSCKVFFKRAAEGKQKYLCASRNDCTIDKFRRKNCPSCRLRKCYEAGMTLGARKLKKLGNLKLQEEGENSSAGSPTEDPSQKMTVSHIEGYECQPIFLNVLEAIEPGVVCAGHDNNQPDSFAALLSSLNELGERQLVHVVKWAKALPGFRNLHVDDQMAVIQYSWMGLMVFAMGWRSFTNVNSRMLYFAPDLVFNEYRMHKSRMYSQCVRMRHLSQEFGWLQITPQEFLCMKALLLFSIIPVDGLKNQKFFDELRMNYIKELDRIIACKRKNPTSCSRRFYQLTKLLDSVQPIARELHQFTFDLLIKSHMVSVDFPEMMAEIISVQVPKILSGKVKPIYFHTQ
pIC50: −log10 of the molar value.
readout_type: pIC50

>>> recorded_value("C[C@]12CC[C@@H]3c4ccc(O)cc4CC[C@H]3[C@@H]1CCC2=O")
4.93

====

target: Alpha-1B adrenergic receptor (Rattus norvegicus); experiment: DRUGMATRIX: Alpha-1B adrenergic receptor radioligand binding (ligand: prazosin); type: cell membranes, Wistar, Liver, Membrane; conditions: Not Active = under 50% inhibition at 10 µM
Sequence (P15823 whole entry): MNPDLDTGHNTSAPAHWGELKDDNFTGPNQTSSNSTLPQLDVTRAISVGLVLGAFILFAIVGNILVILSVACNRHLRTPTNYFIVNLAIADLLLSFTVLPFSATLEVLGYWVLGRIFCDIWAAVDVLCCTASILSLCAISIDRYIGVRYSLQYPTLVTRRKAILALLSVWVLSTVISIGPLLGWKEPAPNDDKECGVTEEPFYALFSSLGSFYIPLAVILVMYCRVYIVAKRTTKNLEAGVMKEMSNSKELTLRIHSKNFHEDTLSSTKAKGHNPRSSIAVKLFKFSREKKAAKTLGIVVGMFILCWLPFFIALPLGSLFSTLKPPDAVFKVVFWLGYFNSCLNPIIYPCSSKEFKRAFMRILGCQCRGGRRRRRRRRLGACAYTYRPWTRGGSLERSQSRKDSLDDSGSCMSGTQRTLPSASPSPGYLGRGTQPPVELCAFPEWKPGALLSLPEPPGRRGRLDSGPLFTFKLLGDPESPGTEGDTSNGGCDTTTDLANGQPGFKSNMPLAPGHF
readout_type: IC50

>>> recorded_value("CC(C)(Oc1ccc(Cl)cc1)C(=O)O [CLOFIBRIC ACID]")
"Not Active"
>>> recorded_value("C[C@](N)(Cc1ccc(O)c(O)c1)C(=O)O [METHYLDOPA]")
"Not Active"
>>> recorded_value("Nc1c2c(nc3ccccc13)CCCC2 [TACRINE]")
"Not Active"

====

biological target: Aldo-keto reductase family 1 member B1 (Rattus norvegicus, UniProt P07943); test: biochemical; type: tissue-based, Lens of camera-type eye; conditions: read-out: IC50; note: in other assays of this panel Not Active means under 50% inhibition at 10 µM;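 note: inhibition of aldose reductase enzyme activity, measured with DL-glyceraldehyde as the substrate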
I'd appreciate it if you marked entries MET when IC50 is lower than 2000 nM and NOT MET when it is not.

>>> category("O=c1oc2ccccc2c(O)c1Cc1c(O)c2ccccc2oc1=O")
"NOT MET"
>>> category("CSc1ccc(/C=C2/C(C)=C(CC(=O)O)c3cc(F)ccc32)cc1 [SULINDAC SULFIDE]")
"MET"
>>> category("N#CC(C#N)=Cc1ccc(O)c(O)c1")
"MET"
>>> category("O=C(O)CCCc1ccc(N(CCCl)CCCl)cc1")
"NOT MET"

====

target: C-C chemokine receptor type 2 (Homo sapiens); type: cell membranes, CHO-K1, Membrane; settings: cho-k1; note: in other assays of this panel Not Active means under 50% inhibition at 10 µM
Sequence (P41597 whole entry): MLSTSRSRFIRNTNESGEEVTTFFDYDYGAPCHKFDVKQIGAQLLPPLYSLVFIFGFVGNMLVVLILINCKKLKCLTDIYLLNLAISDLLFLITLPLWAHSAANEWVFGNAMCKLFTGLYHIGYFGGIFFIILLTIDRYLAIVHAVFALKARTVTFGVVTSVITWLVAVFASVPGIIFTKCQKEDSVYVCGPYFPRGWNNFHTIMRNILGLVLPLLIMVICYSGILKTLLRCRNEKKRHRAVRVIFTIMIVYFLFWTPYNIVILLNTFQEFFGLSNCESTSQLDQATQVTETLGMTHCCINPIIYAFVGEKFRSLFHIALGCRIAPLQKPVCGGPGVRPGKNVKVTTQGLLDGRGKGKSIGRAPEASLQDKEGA
readout_type: IC50

>>> recorded_value("Nc1nc(N)nc(-c2cc(Cl)ccc2Cl)n1.O=C(O)/C=C\\C(=O)O [IRSOGLADINE MALEATE]")
"Not Active"
>>> recorded_value("CC1(C)S[C@@H]2[C@H](NC(=O)Cc3ccccc3)C(=O)N2[C@H]1C(=O)O")
"Not Active"
>>> recorded_value("Cc1ccc(N(CC2=NCCN2)c2cccc(O)c2)cc1")
"Not Active"
>>> recorded_value("Sc1ncnc2nc[nH]c12 [MERCAPTOPURINE ANHYDROUS]")
"Not Active"
>>> recorded_value("CCCC1O[C@@H]2C[C@H]3[C@@H]4CCC5=CC(=O)C=C[C@]5(C)[C@H]4[C@@H](O)C[C@]3(C)[C@]2(C(=O)CO)O1 (stereo partly drawn) [BUDESONIDE]")
"Not Active"
>>> recorded_value("c1ccc([C@H]2CN3CCSC3=N2)cc1")
"Not Active"
>>> recorded_value("CO[C@H]1/C=C/O[C@@]2(C)Oc3c(C)c(O)c4c(O)c(c(/C=N/N5CCN(C)CC5)c(O)c4c3C2=O)NC(=O)/C(C)=C\\C=C\\[C@H](C)[C@H](O)[C@@H](C)[C@@H](O)[C@@H](C)[C@H](OC(C)=O)[C@@H]1C")
"Not Active"
>>> recorded_value("N[C@@H](Cc1ccc(O)c(O)c1)C(=O)O")
"Not Active"

====

target: Muscarinic acetylcholine receptor M4 (Homo sapiens); type: cell membranes, CHO-K1, Membrane; conditions: read-out: Ki; note: in other assays of this panel Not Active means under 50% inhibition at 10 µM
Sequence (P08173 whole entry): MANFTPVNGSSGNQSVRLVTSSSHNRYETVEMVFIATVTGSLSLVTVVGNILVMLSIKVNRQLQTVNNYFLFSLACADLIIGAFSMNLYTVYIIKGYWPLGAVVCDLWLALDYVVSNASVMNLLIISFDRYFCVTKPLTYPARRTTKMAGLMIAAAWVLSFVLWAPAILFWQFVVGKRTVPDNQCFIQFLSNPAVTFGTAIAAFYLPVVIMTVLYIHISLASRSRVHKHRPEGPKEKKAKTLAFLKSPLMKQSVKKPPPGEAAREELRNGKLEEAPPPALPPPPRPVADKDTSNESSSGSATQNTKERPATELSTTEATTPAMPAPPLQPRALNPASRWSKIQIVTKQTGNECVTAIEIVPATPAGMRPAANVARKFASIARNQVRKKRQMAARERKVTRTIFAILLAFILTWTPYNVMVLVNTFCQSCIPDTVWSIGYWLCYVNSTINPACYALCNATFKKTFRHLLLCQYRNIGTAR
pKi: −log10 of the molar value.
readout_type: pKi

>>> recorded_value("C1CCC(C(CC2CCCCN2)C2CCCCC2)CC1 (configuration not stated)")
6.30
>>> recorded_value("CN1CCN(CCCN2c3ccccc3Sc3ccc(Cl)cc32)CC1")
6.72
>>> recorded_value("CC(C)N1CCN(c2ccc(OCC3COC(Cn4cncn4)(c4ccc(Cl)cc4Cl)O3)cc2)CC1 (configuration not stated)")
5.72
>>> recorded_value("CN(C)CCCN1c2ccccc2Sc2ccccc21")
7.38
>>> recorded_value("CCCCc1oc2ccccc2c1C(=O)c1cc(I)c(OCCN(CC)CC)c(I)c1")
6.30
>>> recorded_value("CC/C(=C(\\c1ccccc1)c1ccc(OCCN(C)C)cc1)c1ccccc1")
6.17
>>> recorded_value("O=C(CCCN1CC=C(n2c(=O)[nH]c3ccccc32)CC1)c1ccc(F)cc1")
6.27

====

Quick reference for IC50 among some compounds
molecular target: 5-hydroxytryptamine receptor 2B (Homo sapiens, UniProt P41595); assay type: cell membranes, CHO-K1, Membrane; settings: read-out: IC50; note: in other assays of this panel Not Active means under 50% inhibition at 10 µM
Sequence (P41595 whole entry): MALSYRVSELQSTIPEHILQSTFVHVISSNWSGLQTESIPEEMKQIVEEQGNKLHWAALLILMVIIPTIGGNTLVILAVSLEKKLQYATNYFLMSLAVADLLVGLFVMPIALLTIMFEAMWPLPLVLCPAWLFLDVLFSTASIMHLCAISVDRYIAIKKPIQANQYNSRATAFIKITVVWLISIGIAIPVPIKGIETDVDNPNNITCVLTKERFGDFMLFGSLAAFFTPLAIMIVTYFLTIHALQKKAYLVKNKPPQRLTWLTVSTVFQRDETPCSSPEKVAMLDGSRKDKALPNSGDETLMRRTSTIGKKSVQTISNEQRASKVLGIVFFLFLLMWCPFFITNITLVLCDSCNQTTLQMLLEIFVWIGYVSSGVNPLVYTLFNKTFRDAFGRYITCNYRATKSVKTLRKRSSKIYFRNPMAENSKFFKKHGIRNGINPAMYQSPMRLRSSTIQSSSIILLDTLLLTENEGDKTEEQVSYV
readout_type: IC50

>>> recorded_value("CC[C@@H](CO)NC(=O)[C@@H]1C=C2c3cccc4[nH]cc(c34)C[C@H]2N(C)C1")
"0.00151 µM"
>>> recorded_value("CC[C@@]1(O)C[C@H](O[C@H]2C[C@H](N(C)C)[C@H](O[C@H]3C[C@H](O)[C@H](O[C@H]4CCC(=O)[C@H](C)O4)[C@H](C)O3)[C@H](C)O2)c2c(cc3c(c2O)C(=O)c2c(O)cccc2C3=O)[C@H]1C(=O)OC")
"1.11 µM"
>>> recorded_value("CC/C(=C(\\c1ccccc1)c1ccc(OCCN(C)C)cc1)c1ccccc1")
"2.08 µM"
